Hello, the source for this data is ChEMBL document CHEMBL1926642, in case you need it.

Test system: MDA-MB-435
Experiment: Growth inhibition of human MDA-MB-435 cells after 48 hrs by sulforhodamine B assay
Type: functional
Conditions: MDA-MB-435, 48 h
EXPERIMENTAL ENDPOINT: log10 of GI50 (log10 of the value in µM)
On a log10 scale: recorded GI50, unit µM.

MOLECULE | log10 of GI50
COc1cc(/C=C/c2cc3c(c(OC)c2)O[C@]2(C)CC[C@@H](O)C(C)(C)[C@H]2C3)cc(O)c1C/C=C(\C)CCC=C(C)C | 0.63

Recorded log10 of GI50 for COc1cc(/C=C/c2cc(O)c3c(c2)C[C@@H]2C(C)(C)[C@H](O)CC[C@@]2(C)O3)cc(O)c1C/C=C(\C)CCC=C(C)C , please?
-0.10

Recorded log10 of GI50 for COCOc1cc(/C=C/c2cc(CO)c3c(c2)C[C@@H]2C(C)(C)[C@H](O)CC[C@@]2(C)O3)cc(OC)c1C/C=C(\C)CCC=C(C)C , please?
0.14

Recorded log10 of GI50 for COCOc1cc(/C=C/c2cc(C=O)c3c(c2)C[C@@H]2C(C)(C)[C@H](O)CC[C@@]2(C)O3)cc(OC)c1C/C=C(\C)CCC=C(C)C , please?
0.83

Recorded log10 of GI50 for COc1cc(/C=C/c2cc3c(c(SC)c2)O[C@]2(C)CC[C@@H](O)C(C)(C)[C@H]2C3)cc(O)c1C/C=C(\C)CCC=C(C)C , please?
1.11

Recorded log10 of GI50 for COc1cc(/C=C/c2ccc3c(c2)C[C@@H]2C(C)(C)[C@H](O)CC[C@@]2(C)O3)cc(O)c1C/C=C(\C)CCC=C(C)C , please?
1.24

Recorded log10 of GI50 for COc1cc(/C=C/c2cc(F)c3c(c2)C[C@@H]2C(C)(C)[C@H](O)CC[C@@]2(C)O3)cc(O)c1C/C=C(\C)CCC=C(C)C , please?
1.12

* * *

Measured GI50, listed per entry for reference.
System: EKVX
Test: Growth inhibition of human EKVX cells after 48 hrs by sulforhodamine B assay
Type: functional

MOLECULE | TARGET ENTITY | REPORTED RESULT
COc1cc(/C=C/c2cc3c(c(OC)c2)O[C@]2(C)CC[C@@H](O)C(C)(C)[C@H]2C3)cc(O)c1C/C=C(\C)CCC=C(C)C | EKVX | 2.09 µM
COCOc1cc(/C=C/c2cc(C=O)c3c(c2)C[C@@H]2C(C)(C)[C@H](O)CC[C@@]2(C)O3)cc(OC)c1C/C=C(\C)CCC=C(C)C | EKVX | 5.5 µM
COc1cc(/C=C/c2cc(O)c3c(c2)C[C@@H]2C(C)(C)[C@H](O)CC[C@@]2(C)O3)cc(O)c1C/C=C(\C)CCC=C(C)C | EKVX | 0.977 µM
COCOc1cc(/C=C/c2cc(CO)c3c(c2)C[C@@H]2C(C)(C)[C@H](O)CC[C@@]2(C)O3)cc(OC)c1C/C=C(\C)CCC=C(C)C | EKVX | 4.47 µM

Lookup: GI50 / EKVX / COc1cc(/C=C/c2cc(F)c3c(c2)C[C@@H]2C(C)(C)[C@H](O)CC[C@@]2(C)O3)cc(O)c1C/C=C(\C)CCC=C(C)C
11.7 µM

Lookup: GI50 / EKVX / COc1cc(/C=C/c2cc3c(c(SC)c2)O[C@]2(C)CC[C@@H](O)C(C)(C)[C@H]2C3)cc(O)c1C/C=C(\C)CCC=C(C)C
40.7 µM

Lookup: GI50 / EKVX / COc1cc(/C=C/c2ccc3c(c2)C[C@@H]2C(C)(C)[C@H](O)CC[C@@]2(C)O3)cc(O)c1C/C=C(\C)CCC=C(C)C
14.5 µM
